Provenance of the data: paper PMC9403987

Tested on: DLD-2
assayProtocol: Cell proliferation assay
Format: cell-based, Homo sapiens
experimentalConditions: DLD-2, colorectal carcinoma, 72 hours

{"structureSmilesString": "CC1=Nc2c(F)cc(-c3nc(Nc4ccc(C5CCN(C)CC5)cn4)ncc3F)cc2C12CCCC2", "IC50 [nM]": 33}

====

Tested on: A172
assayProtocol: Cell proliferation assay
Type: cell-based, Homo sapiens
experimentalConditions: Homo sapiens, A 172; A172, brain, glioblastoma, 72 hours
Procedure: To quantify cell proliferation, either the nuclei of live cells were counted following staining with 4’,6-diamidino-2-phenylindole (DAPI; Sigma-Aldrich, Burlington, MA, USA), or metabolically active cells were detected using a CellTiter-Glo assay (Promega Corporation, Madison, WI, USA). […] Plates were scanned using an IN Cell Analyzer 2200 (GE Healthcare Life Sciences, Chicago, IL, USA) and the number of cells per well was recorded. […]
pIC50: −log10 of the molar value.
endpoint: pIC50

{"compound": "CCN1CCN(Cc2ccc(Nc3ncc(F)c(-c4cc(F)c5nc(C)n(C(C)C)c5c4)n3)nc2)CC1 [Abemaciclib, abemaciclib, reference compound]", "endpoint": "pIC50", "recordedMeasurement": 6.95}

====

System: NCI-H520
assayProtocol: Cell proliferation assay
Type: cell-based, Homo sapiens
experimentalConditions: Homo sapiens; NCI-H520, lung carcinoma, 72 hours

{"compound": "CCN1CCN(Cc2ccc(Nc3ncc(F)c(-c4cc(F)c5nc(C)n(C(C)C)c5c4)n3)nc2)CC1 [Abemaciclib, abemaciclib, reference compound]", "targetOrSystem": "NCI-H520", "IC50 [nM]": 364}

====

Tested on: MCF-7
assayProtocol: Cell proliferation assay
Assay type: cell-based, Homo sapiens
experimentalConditions: MCF-7, breast carcinoma, 72 hours
pIC50: −log10 of the molar value.

{"structureSmilesString": "CC1=Nc2c(F)cc(-c3nc(Nc4ccc(C5CCN(C)CC5)cn4)ncc3F)cc2C12CCCC2", "targetOrSystem": "MCF-7", "pIC50": 8.70}

====

Test system: COLO 205
assayProtocol: Cell proliferation assay
Format: cell-based, Homo sapiens
experimentalConditions: COLO 205, colon carcinoma, 72 hours
pIC50: −log10 of the molar value.

{"structureSmilesString": "CC1=Nc2c(F)cc(-c3nc(Nc4ccc(C5CCN(C)CC5)cn4)ncc3F)cc2C12CCCC2", "pIC50": 6.71}

====

Test system: BNL CL.2
assayProtocol: Cell proliferation assay
Format: cell-based, Mus musculus
experimentalConditions: BNL CL.2, liver, normal, 72 hours
endpoint: IC50 (nM)

{"compound": "CC1=Nc2c(F)cc(-c3nc(Nc4ccc(C5CCN(C)CC5)cn4)ncc3F)cc2C12CCCC2 [GLR2007]", "recordedMeasurement": 1940}

====

Tested on: NCI-H1155
assayProtocol: Cell proliferation assay
Assay type: cell-based, Homo sapiens
experimentalConditions: Homo sapiens; NCI-H1155, lung, NSCLC, 72 hours
Procedure: To quantify cell proliferation, either the nuclei of live cells were counted following staining with 4’,6-diamidino-2-phenylindole (DAPI; Sigma-Aldrich, Burlington, MA, USA), or metabolically active cells were detected using a CellTiter-Glo assay (Promega Corporation, Madison, WI, USA). […] Plates were scanned using an IN Cell Analyzer 2200 (GE Healthcare Life Sciences, Chicago, IL, USA) and the number of cells per well was recorded. […]
pIC50: −log10 of the molar value.

{"compound": "CCN1CCN(Cc2ccc(Nc3ncc(F)c(-c4cc(F)c5nc(C)n(C(C)C)c5c4)n3)nc2)CC1 [Abemaciclib, abemaciclib, reference compound]", "pIC50": 5.62}

====

System: SNU-182
assayProtocol: Cell proliferation assay
Assay type: cell-based, Homo sapiens
experimentalConditions: SNU-182, liver, hepatocellular carcinoma, 72 hours
pIC50: −log10 of the molar value.
endpoint: pIC50

{"compound": "CC1=Nc2c(F)cc(-c3nc(Nc4ccc(C5CCN(C)CC5)cn4)ncc3F)cc2C12CCCC2 [GLR2007]", "recordedMeasurement": 5.65}

====

Test system: NCI-H1792
assayProtocol: Cell proliferation assay
Format: cell-based, Homo sapiens
experimentalConditions: NCI-H1792, lung carcinoma, 72 hours
endpoint: IC50 (nM)

{"structureSmilesString": "CC1=Nc2c(F)cc(-c3nc(Nc4ccc(C5CCN(C)CC5)cn4)ncc3F)cc2C12CCCC2", "targetOrSystem": "NCI-H1792", "endpointUnit": "nM", "recordedMeasurement": 3}

====

Tested on: M059K
assayProtocol: Cell proliferation assay
Assay type: cell-based, Homo sapiens
experimentalConditions: brain, glioblastoma, 72 hours
pIC50: −log10 of the molar value.

{"structureSmilesString": "CC1=Nc2c(F)cc(-c3nc(Nc4ccc(C5CCN(C)CC5)cn4)ncc3F)cc2C12CCCC2", "pIC50": 5.49}

====

System: H22
assayProtocol: Cell proliferation assay
Format: cell-based, Mus musculus
experimentalConditions: Mus musculus; H22, liver, hepatocellular carcinoma, 72 hours

{"compound": "CCN1CCN(Cc2ccc(Nc3ncc(F)c(-c4cc(F)c5nc(C)n(C(C)C)c5c4)n3)nc2)CC1 [Abemaciclib, abemaciclib, reference compound]", "IC50 / µM": 3.58}

====

targetOrSystem: CDK4–cyclin D1 (Homo sapiens, UniProt P11802)
Sequence (P11802 whole entry): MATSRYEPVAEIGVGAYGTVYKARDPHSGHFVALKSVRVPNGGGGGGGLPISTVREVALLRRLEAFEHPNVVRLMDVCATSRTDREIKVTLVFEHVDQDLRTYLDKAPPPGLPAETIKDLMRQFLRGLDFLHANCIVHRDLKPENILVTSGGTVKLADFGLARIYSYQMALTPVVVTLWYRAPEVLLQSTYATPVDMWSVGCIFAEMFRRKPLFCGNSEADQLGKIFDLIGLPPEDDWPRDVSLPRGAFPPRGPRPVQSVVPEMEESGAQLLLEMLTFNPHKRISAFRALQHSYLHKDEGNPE
Sequence (P24385 whole entry partner): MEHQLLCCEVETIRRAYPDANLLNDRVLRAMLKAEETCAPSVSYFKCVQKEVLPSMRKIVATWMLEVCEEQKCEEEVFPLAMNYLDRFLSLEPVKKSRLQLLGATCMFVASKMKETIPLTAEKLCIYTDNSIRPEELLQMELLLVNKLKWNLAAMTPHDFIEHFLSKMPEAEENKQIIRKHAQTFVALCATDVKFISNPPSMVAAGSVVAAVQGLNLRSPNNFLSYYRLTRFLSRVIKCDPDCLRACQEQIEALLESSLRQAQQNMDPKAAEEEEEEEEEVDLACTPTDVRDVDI
assayProtocol: LANCE Ultra TR-FRET enzymatic profiling assay
experimentalConditions: CDK4/CyD1
pKi: −log10 of the molar value.

{"structureSmilesString": "CC1=Nc2c(F)cc(-c3nc(Nc4ccc(C5CCN(C)CC5)cn4)ncc3F)cc2C12CCCC2", "pKi": "> 10.00"}

====

System: Li-7
assayProtocol: Cell proliferation assay
Format: cell-based, Homo sapiens
experimentalConditions: Homo sapiens; Li-7, liver, hepatocellular carcinoma, 72 hours
pIC50: −log10 of the molar value.

{"molecule": "CCN1CCN(Cc2ccc(Nc3ncc(F)c(-c4cc(F)c5nc(C)n(C(C)C)c5c4)n3)nc2)CC1 [Abemaciclib, abemaciclib, reference compound]", "pIC50": 5.20}

====

targetOrSystem: CDK6–cyclin D1 (Homo sapiens)
Sequence (Q00534 whole entry): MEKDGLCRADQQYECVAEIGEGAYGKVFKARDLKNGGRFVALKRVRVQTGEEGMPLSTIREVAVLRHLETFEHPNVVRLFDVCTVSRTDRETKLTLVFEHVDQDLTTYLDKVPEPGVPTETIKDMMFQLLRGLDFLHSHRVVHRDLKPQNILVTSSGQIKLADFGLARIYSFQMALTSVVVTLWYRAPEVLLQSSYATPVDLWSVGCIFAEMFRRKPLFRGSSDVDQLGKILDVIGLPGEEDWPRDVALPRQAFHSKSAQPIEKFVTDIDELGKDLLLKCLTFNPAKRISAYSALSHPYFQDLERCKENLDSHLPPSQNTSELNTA
Sequence (P24385 whole entry partner): as the sequence (P24385 whole entry partner) above
assayProtocol: LANCE Ultra TR-FRET enzymatic profiling assay
experimentalConditions: CDK6/CyD1, 11 concentrations in duplicates
endpoint: IC50

{"compound": "CC1=Nc2c(F)cc(-c3nc(Nc4ccc(C5CCN(C)CC5)cn4)ncc3F)cc2C12CCCC2 [GLR2007]", "recordedMeasurement": "0.53 nM"}

====

Test system: NCI-H520
assayProtocol: Cell proliferation assay
Format: cell-based, Homo sapiens
experimentalConditions: NCI-H520, lung carcinoma, 72 hours

{"structureSmilesString": "CC1=Nc2c(F)cc(-c3nc(Nc4ccc(C5CCN(C)CC5)cn4)ncc3F)cc2C12CCCC2", "IC50 / nM": 241}

====

Test system: HCC827
assayProtocol: Cell proliferation assay
Assay type: cell-based, Homo sapiens
experimentalConditions: HCC827, lung carcinoma, 72 hours

{"structureSmilesString": "CC1=Nc2c(F)cc(-c3nc(Nc4ccc(C5CCN(C)CC5)cn4)ncc3F)cc2C12CCCC2", "IC50 / nM": 15}

====

Test system: Du4475
assayProtocol: Cell proliferation assay
Type: cell-based, Homo sapiens
experimentalConditions: Du4475, breast carcinoma, 72 hours
pIC50: −log10 of the molar value.
endpoint: pIC50

{"structureSmilesString": "CC1=Nc2c(F)cc(-c3nc(Nc4ccc(C5CCN(C)CC5)cn4)ncc3F)cc2C12CCCC2", "endpoint": "pIC50", "recordedMeasurement": 5.69}

====

Tested on: NCI-H1299
assayProtocol: Cell proliferation assay
Assay type: cell-based, Homo sapiens
experimentalConditions: Homo sapiens; NCI-H1299, lung, NSCLC, 72 hours

{"compound": "CCN1CCN(Cc2ccc(Nc3ncc(F)c(-c4cc(F)c5nc(C)n(C(C)C)c5c4)n3)nc2)CC1 [Abemaciclib, abemaciclib, reference compound]", "IC50 [µM]": 0.463}

====

Tested on: MCF-10A
assayProtocol: Cell proliferation assay
Format: cell-based, Homo sapiens
experimentalConditions: Homo sapiens, breast, non-malignant mammary epithelial, 72 hours
pIC50: −log10 of the molar value.

{"compound": "CCN1CCN(Cc2ccc(Nc3ncc(F)c(-c4cc(F)c5nc(C)n(C(C)C)c5c4)n3)nc2)CC1 [Abemaciclib, abemaciclib, reference compound]", "pIC50": 5.75}

====

System: SNU-398
assayProtocol: Cell proliferation assay
Format: cell-based, Homo sapiens
experimentalConditions: Homo sapiens; SNU-398, liver, hepatocellular carcinoma, 72 hours
pIC50: −log10 of the molar value.

{"compound": "CCN1CCN(Cc2ccc(Nc3ncc(F)c(-c4cc(F)c5nc(C)n(C(C)C)c5c4)n3)nc2)CC1 [Abemaciclib, abemaciclib, reference compound]", "targetOrSystem": "SNU-398", "pIC50": 6.76}

====

Tested on: LoVo
assayProtocol: Cell proliferation assay
Format: cell-based, Homo sapiens
experimentalConditions: colorectal carcinoma, 72 hours
endpoint: IC50 (nM)

{"compound": "CC1=Nc2c(F)cc(-c3nc(Nc4ccc(C5CCN(C)CC5)cn4)ncc3F)cc2C12CCCC2 [GLR2007]", "endpointUnit": "nM", "recordedMeasurement": 13}
